This collection of values is drawn from patent US20230365714A1.

# Study System: T1, his-tagged ROR2 extracellular domain (ROR2-ECD, G&P Biosciences, cat. no. FCL0192) (human, UniProt Q01974 34-403)
# T1 construct: Bought protein; also called human ROR2-ECD; recombinant human ROR2-ECD; not shown: his tag
# T1 sequence (Q01974 34-403): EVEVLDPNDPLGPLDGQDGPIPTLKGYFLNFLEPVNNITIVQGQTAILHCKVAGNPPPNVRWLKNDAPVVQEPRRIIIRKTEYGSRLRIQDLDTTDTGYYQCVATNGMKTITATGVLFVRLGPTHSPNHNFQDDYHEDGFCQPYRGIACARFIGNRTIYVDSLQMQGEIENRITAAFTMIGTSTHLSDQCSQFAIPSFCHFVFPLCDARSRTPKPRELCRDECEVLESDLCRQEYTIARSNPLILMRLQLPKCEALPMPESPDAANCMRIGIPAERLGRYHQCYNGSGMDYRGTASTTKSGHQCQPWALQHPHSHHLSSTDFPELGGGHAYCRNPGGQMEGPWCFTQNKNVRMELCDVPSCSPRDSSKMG
# Protocol Summary: BLI (Octet), antibody on anti-human IgG Fc sensor, ROR2-ECD 1.56-100 nM as analyte
pKd: −log10 of the molar value.

Binder	pKd
IgG1-ROR2-A-HC4LC2-FEAR (antibody, V domains shown, Humanized variant) VH: EVQLLESGGGLVQPGGSLRLSCTVSGFSLSSYSMSWVRQAPGKGLEWIGVIYVNSKTWYANWAKGRFTISKDNSKNTVYLQMNSLRAEDTATYYCARGDAGYTTNSWLWGQGTLVTVSS VL: AFELTQSPSSLSASVGDRVTITCQASESIDNYLSWYQQKPGKAPKLLIYQAFKLASGVPSRFRGSGSGTDFTLTISSLQSEDFATYYCQSYSGISTTAFGGGTEVVIK	8.80
IgG1-ROR2-A-HC2LC2-FEAR (antibody, V domains shown, Humanized variant) VH: QSVLESGGGLVQPGGSLRLSCTVSGFSLSSYSMSWVRQAPGKGLEWIGVIYVNSKTWYANWAKGRFTISKTSTTVYLQMNSLRAEDTATYFCARGDAGYTTNSWLWGQGTLVTVSS VL: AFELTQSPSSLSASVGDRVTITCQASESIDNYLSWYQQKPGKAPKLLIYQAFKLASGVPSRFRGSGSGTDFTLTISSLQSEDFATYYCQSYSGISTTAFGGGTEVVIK	8.74
IgG1-ROR2-A-HC6LC1-FEAR (antibody, V domains shown, Humanized variant) VH: EVQLLESGGGLVQPGGSLRLSCTVSGFSLSSYSMSWVRQAPGKGLEWIGVIYVNSKTWYADSVKGRFTISKDNSKNTVYLQMNSLRAEDTATYYCARGDAGYTTNSWLWGQGTLVTVSS VL: AFELTQSPSSLSASVGDRVTITCQASESIDNYCSWYQQKPGKAPKLLIYQAFKLASGVPSRFRGSGSGTDFTLTISSLQSEDFATYYCQSYSGISTTAFGGGTEVVIK	8.51
